inhibition reference
TARGET_OR_TEST_SYSTEM: Serine/threonine-protein kinase Nek2 (Homo sapiens);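 further: mean inhibition value from the GSK PKIS kinase screening panel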
SETTINGS: at 0.1 µM
// return numeric value only (unit: %, not printed)

test_smiles=CNC(=O)c1cncc(/C=C/c2ccccc2C)c1 value_observed=4.96
test_smiles=COc1ccccc1-c1cc(/C=C2\C(=O)Nc3ncc(Br)cc32)cc(Br)c1O value_observed=6.8
test_smiles=Fc1ccc(Nc2nccc(-c3c(-c4ccc(C(F)(F)F)cc4)nn4ncccc34)n2)cc1F value_observed=4.93
test_smiles=CC(C)c1ccc(-c2cc(-c3c[nH]nc3-c3ccccn3)ccn2)cc1 value_observed=1.77

Which inhibition value belongs to CN(c1ccc(NC(=O)NCCN2CCOCC2)cc1)c1ccnc(Nc2ccc(CS(C)(=O)=O)cc2)n1 ?
2.52

Which inhibition value belongs to COc1cccc(Nc2nccc(-c3cnn4ncccc34)n2)c1 ?
4.5

Which inhibition value belongs to CS(=O)(=O)CCNCc1ccc(-c2ccc3ncnc(Nc4ccc(OCc5cccc(C(F)(F)F)c5)cc4)c3c2)o1 ?
7.25

Which inhibition value belongs to O=C(O[C@H]1CN[C@H](C#Cc2cc3ncnc(Nc4ccc5c(cnn5Cc5ccccc5)c4)c3s2)C1)N1CCOCC1 ?
0.17

Which inhibition value belongs to COc1cc(N2CCN(C(C)C)CC2)ccc1Nc1nc(Nc2cccc3ncccc23)c2cc[nH]c2n1 ?
-0.73
